Origin of values: paper PMC9482650

- assaySystem: T1, MPDZ_10, O75970
- T1 sequence (O75970 1624-1722, limits assumed, looked up): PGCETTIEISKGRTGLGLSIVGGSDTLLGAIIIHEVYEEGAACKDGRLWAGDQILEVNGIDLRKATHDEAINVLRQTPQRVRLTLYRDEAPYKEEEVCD
- procedureSummary: holdup assay
- Design: key: below the threshold = too weak to quantify, mostly under pKd 3.1 to 4
- cond: plain residues with an end cap or a label only (N-terminal biotin on a linker: ahx)
assayReadout: pKd

| binder | reportedMeasurement |
| --- | --- |
| VNENQKEYFF [CNTNAP4, Q9C0A0] | below the threshold |
| PKMKLNETSF [SHKBP1, Q8TBC3] | below the threshold |
| KEYDDELTFF [USH1C, Q9Y6N9] | below the threshold |
| ADENEQVSAV [RAPGEF6, Q8TEU7] | below the threshold |
| YNSFLSVTTV [PDZRN3, Q9UPQ7] | 3.96 |

# ---- query binder ----
// returns reported pKd for input SAPATLSSRA [PDLIM2, Q96JY6]
4
